Reference source for all entries: a melting point compilation (Tetko et al.; mined from patent text by program, amines drawn as free bases though some values may be those of a salt)

Reported melting point is given for each of the following molecules.

Example results:
# melting point (molecule: "CC(=O)N[C@H]1CC[C@H](CCN2CCN(c3nc(C)cc4occc34)CC2)CC1" ) is 208 °C

# melting point (molecule: "CCCOC(=O)c1sc(C(=O)OCCC)c(OS(=O)(=O)c2ccc(Br)cc2)c1C" ) is 73 to 74 °C

# melting point (molecule: "C[C@@H](O)[C@H](NC(=O)Cc1ccccc1)C(=O)O" ) is 118 to 120 °C

# melting point (molecule: "COc1ccc2ncc(F)cc2c1" ) is 51 to 53 °C

Next item in the queue.
# melting point (molecule: CCOC(Cc1ccc(OCCN(C)c2nc3ccccc3o2)cc1)c1nc(C)no1 (stereo not given) ) is 61 to 62 °C

====

Reported melting point is given for each of the following compounds.
Kindly provide the numeric value in °C only, without the unit symbol.

# melting point (compound: "CC(=O)c1c(-c2ccc(F)cc2)nc2occn12" ) is 173

# melting point (compound: "COc1cc2c(cc1OC)CC(=O)NC(=O)C2" ) is 235

# melting point (compound: C#CCOC(=O)C1=C(C)NC(C)=C(C(=O)OCC)C1c1ccccc1C(F)(F)F (stereo not given) ) is 130

---
# melting point (compound: "COc1ccc(C=O)cc1C" ) is 120

====

Reported melting point is given for each of the following molecules.

Example results:
# melting point (molecule: "O=C(NCCSc1cccc2nccn12)c1ccccc1O" ) is 156 to 157 °C

# melting point (molecule: "O=C(C1CCNCC1)N1CCN(c2cccc3[nH]ccc23)CC1" ) is > 240 °C

# melting point (molecule: "COC(=O)[C@H](Cc1cc(Cl)c(OCc2cccc3nc(-c4ccccc4)oc23)c(Cl)c1)NC(=O)C(F)(F)F" ) is 168 to 170 °C

# melting point (molecule: Cc1ccccc1C1(O)c2cc(NC(=O)CC(C)(C)C)c(C)c(C)c2OC1(C)C (stereo not given) ) is 111 to 112 °C

# melting point (molecule: "FC(F)(F)c1cc(CO[C@H]2CCCN(Cc3nsc(I)n3)[C@H]2c2ccccc2)cc(C(F)(F)F)c1" ) is 98 to 101 °C

# melting point (molecule: "O=C1c2ccc(Br)cc2C(=O)N1c1ccc(Cl)cc1C(F)(F)F" ) is 174 to 175 °C

# melting point (molecule: "COC(=O)c1cc(=O)c2cc(F)ccc2o1" ) is 138 to 139 °C

# melting point (molecule: "CCOP(=O)(CNC(=O)Nc1c(C(C)C)cccc1C(C)C)OCC" ) is 132 to 134 °C

# melting point (molecule: "COCc1cc2c(C(=O)Nc3c(C)noc3C)ccc(OC)c2o1" ) is 168 to 170 °C

# melting point (molecule: "CC(C)(C)c1ccc(C#N)cc1[N+](=O)[O-]" ) is 70.5 to 71.5 °C

---
# melting point (molecule: "CC1(C)CCC(C)(C)c2cc3c(cc21)CCc1c(-c2ccc(C(=O)O)cc2)csc1-3" ) is 261 to 262 °C

# melting point (molecule: "CCOCc1nc2c(N)nc3cc(/C=C/C(=O)OC)ccc3c2n1CCCCN1CCCS1(=O)=O" ) is 162 to 163 °C

# melting point (molecule: O=C(CCC1CCN(C(=O)OCc2ccc([N+](=O)[O-])cc2)CC1)c1ccc2c(c1)CN1C(=O)c3ccccc3C1CC2 (stereo not given) ) is 179 to 181 °C

# melting point (molecule: "Cc1cc(Cl)ccc1OCC(=O)N1Cc2ccc(C(=O)C(Cl)(Cl)Cl)n2Cc2ccccc21" ) is 156 to 158 °C

# melting point (molecule: CCC(OCc1ccc(-c2ccc(Cl)cc2)cc1)(C(=O)OC)c1ccccc1 (stereo not given) ) is 68 to 72 °C

# melting point (molecule: COc1ccc(CCC(=NNc2ccc(C3=NNC(=O)CC3C)cc2)c2ccc(O)cc2O)cc1OC (stereo not given) ) is 135 to 140 °C
